Molecular target: D(2) dopamine receptor (Homo sapiens)
Sequence (P14416 whole entry): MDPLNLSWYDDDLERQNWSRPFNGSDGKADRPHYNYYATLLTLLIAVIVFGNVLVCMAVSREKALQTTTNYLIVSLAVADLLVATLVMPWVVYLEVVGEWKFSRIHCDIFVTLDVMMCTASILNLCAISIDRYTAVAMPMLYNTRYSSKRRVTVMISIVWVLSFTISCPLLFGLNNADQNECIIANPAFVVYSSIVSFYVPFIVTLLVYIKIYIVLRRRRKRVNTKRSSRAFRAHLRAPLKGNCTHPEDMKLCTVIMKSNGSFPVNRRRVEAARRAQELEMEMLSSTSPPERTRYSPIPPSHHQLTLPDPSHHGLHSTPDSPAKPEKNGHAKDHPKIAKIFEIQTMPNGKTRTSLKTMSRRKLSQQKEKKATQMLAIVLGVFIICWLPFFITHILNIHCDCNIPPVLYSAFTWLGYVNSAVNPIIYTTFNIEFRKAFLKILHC
Experiment: Displacement of [3H]spiperone from human D2short receptor expressed in CHO cells
Type: cell-based
Binarize Ki at 20 nM; below is yes, at or above is no.

CCOCCn1cc(COc2ccc(CN3CCN(c4ccccc4OC)CC3)cc2OC)nn1 no
COc1cc(CN2CCN(c3ccccc3OC)CC2)ccc1OCCCCc1cn(CCCCCCCCCCn2cc(CCCCOc3ccc(CN4CCN(c5ccccc5OC)CC4)cc3OC)nn2)nn1 yes
CCCc1cn(CCCCCCCCn2cc(CCCOc3ccc(CN4CCN(c5ccccc5OC)CC4)cc3OC)nn2)nn1 no
COc1cc(CN2CCN(c3ccccc3OC)CC2)ccc1OCCCc1cn(CCOCCOCCOCCn2cc(CCCOc3ccc(CN4CCN(c5ccccc5OC)CC4)cc3OC)nn2)nn1 yes
COc1cc(CN2CCN(c3ccccc3OC)CC2)ccc1OCc1cn(CCOCCOCCn2cc(COc3ccc(CN4CCN(c5ccccc5OC)CC4)cc3OC)nn2)nn1 yes

Lab note: confirm whether the reported Ki for this compound is below 20 nM, equality not counting. compound: `COc1cc(CN2CCN(c3ccccc3OC)CC2)ccc1OCc1cn(CCCCCCCCn2cc(COc3ccc(CN4CCN(c5ccccc5OC)CC4)cc3OC)nn2)nn1`
no

Lab note: confirm whether the reported Ki for this compound is below 20 nM, equality not counting. compound: `COc1cc(CN2CCN(c3ccccc3OC)CC2)ccc1OCCCc1cn(CCOCCOCCn2cc(CCCOc3ccc(CN4CCN(c5ccccc5OC)CC4)cc3OC)nn2)nn1`
yes

====

Biological target: D(1A) dopamine receptor (Sus scrofa)
Experiment: Displacement of [3H]SCH23390 from D1 receptor from porcine cerebral cortex homogenates
PROPERTY NAME: Ki (nM)
Value expressed in nM; do not type the unit.

Take a look at these entries with their results.
COc1cc(CN2CCN(c3ccccc3OC)CC2)ccc1OCCCc1cn(CCCCCCCCCCn2cc(CCCOc3ccc(CN4CCN(c5ccccc5OC)CC4)cc3OC)nn2)nn1 250
CCOCCn1cc(CCCOc2ccc(CN3CCN(c4ccccc4OC)CC3)cc2OC)nn1 870
CCCCn1cc(CCCCOc2ccc(CN3CCN(c4ccccc4OC)CC3)cc2OC)nn1 2500

Would you kindly share the measured Ki for `COc1cc(CN2CCN(c3ccccc3OC)CC2)ccc1OCCCc1cn(CCOCCOCCOCCn2cc(CCCOc3ccc(CN4CCN(c5ccccc5OC)CC4)cc3OC)nn2)nn1` ?
270

====

Quick record: pKi, D(3) dopamine receptor (Homo sapiens).
Please report pKi as the negative decimal logarithm of the molar concentration, giving only the number.

Take a look at these entries with their results.
COc1cc(CN2CCN(c3ccccc3OC)CC2)ccc1OCCCc1cn(CCOCCOCCn2cc(CCCOc3ccc(CN4CCN(c5ccccc5OC)CC4)cc3OC)nn2)nn1 7.21
COc1cc(CN2CCN(c3ccccc3OC)CC2)ccc1OCCCc1cn(CCCCCCCCCCn2cc(CCCOc3ccc(CN4CCN(c5ccccc5OC)CC4)cc3OC)nn2)nn1 7.02

Would you kindly share the measured pKi for `CCOCCn1cc(CCCOc2ccc(CN3CCN(c4ccccc4OC)CC3)cc2OC)nn1` ?
6.60

Would you kindly share the measured pKi for `CCCCn1cc(CCCCOc2ccc(CN3CCN(c4ccccc4OC)CC3)cc2OC)nn1` ?
6.23

Would you kindly share the measured pKi for `COc1cc(CN2CCN(c3ccccc3OC)CC2)ccc1OCc1cn(CCCCCCCCn2cc(COc3ccc(CN4CCN(c5ccccc5OC)CC4)cc3OC)nn2)nn1` ?
7.51

====

Let's look at some molecules and their measured Ki.
Biological target: D(2) dopamine receptor (Homo sapiens)
Test: Displacement of [3H]spiperone from human D2long receptor expressed in CHO cells
Value expressed in µM; do not type the unit.

Take a look at these entries with their results.
COc1cc(CN2CCN(c3ccccc3OC)CC2)ccc1OCCCCc1cn(CCCCCCCCCCn2cc(CCCCOc3ccc(CN4CCN(c5ccccc5OC)CC4)cc3OC)nn2)nn1 0.017
COc1cc(CN2CCN(c3ccccc3OC)CC2)ccc1OCCCc1cn(CCOCCOCCOCCn2cc(CCCOc3ccc(CN4CCN(c5ccccc5OC)CC4)cc3OC)nn2)nn1 0.0048
CCCCn1cc(COc2ccc(CN3CCN(c4ccccc4OC)CC3)cc2OC)nn1 0.063
COc1cc(CN2CCN(c3ccccc3OC)CC2)ccc1OCc1cn(CCOCCOCCn2cc(COc3ccc(CN4CCN(c5ccccc5OC)CC4)cc3OC)nn2)nn1 0.0033
CCCc1cn(CCCCCCCCn2cc(CCCOc3ccc(CN4CCN(c5ccccc5OC)CC4)cc3OC)nn2)nn1 0.036

Would you kindly share the measured Ki for `CCOCCn1cc(COc2ccc(CN3CCN(c4ccccc4OC)CC3)cc2OC)nn1` ?
0.068

Would you kindly share the measured Ki for `COc1cc(CN2CCN(c3ccccc3OC)CC2)ccc1OCCCc1cn(CCOCCOCCn2cc(CCCOc3ccc(CN4CCN(c5ccccc5OC)CC4)cc3OC)nn2)nn1` ?
0.0028

Would you kindly share the measured Ki for `COc1cc(CN2CCN(c3ccccc3OC)CC2)ccc1OCCCc1cn(CCCCCCCCCCn2cc(CCCOc3ccc(CN4CCN(c5ccccc5OC)CC4)cc3OC)nn2)nn1` ?
0.023

Would you kindly share the measured Ki for `CCOCCn1cc(CCCOc2ccc(CN3CCN(c4ccccc4OC)CC3)cc2OC)nn1` ?
0.018

Would you kindly share the measured Ki for `COc1cc(CN2CCN(c3ccccc3OC)CC2)ccc1OCc1cn(CCCCCCCCn2cc(COc3ccc(CN4CCN(c5ccccc5OC)CC4)cc3OC)nn2)nn1` ?
0.016

Would you kindly share the measured Ki for `CCCCn1cc(CCCCOc2ccc(CN3CCN(c4ccccc4OC)CC3)cc2OC)nn1` ?
0.052

====

Target: UniProt P14416
Experiment: Displacement of [3H]spiperone from human D2short receptor expressed in CHO cells
Assay type: cell-based
PROPERTY NAME: Ki (nM)
Value expressed in nM; do not type the unit.

Take a look at these entries with their results.
CCOCCn1cc(CCCOc2ccc(CN3CCN(c4ccccc4OC)CC3)cc2OC)nn1 16
CCCCn1cc(CCCCOc2ccc(CN3CCN(c4ccccc4OC)CC3)cc2OC)nn1 67
CCCCn1cc(COc2ccc(CN3CCN(c4ccccc4OC)CC3)cc2OC)nn1 70

Would you kindly share the measured Ki for `COc1cc(CN2CCN(c3ccccc3OC)CC2)ccc1OCCCc1cn(CCCCCCCCCCn2cc(CCCOc3ccc(CN4CCN(c5ccccc5OC)CC4)cc3OC)nn2)nn1` ?
17

====

Species: Homo sapiens
Experiment: Selectivity ratio of Ki for human D4.4 receptor to Ki for human D3 receptor
PROPERTY NAME: Ratio Ki
Reply: number alone, nothing else.

Take a look at these entries with their results.
COc1cc(CN2CCN(c3ccccc3OC)CC2)ccc1OCc1cn(CCCCCCCCn2cc(COc3ccc(CN4CCN(c5ccccc5OC)CC4)cc3OC)nn2)nn1 5
CCCCn1cc(COc2ccc(CN3CCN(c4ccccc4OC)CC3)cc2OC)nn1 80
COc1cc(CN2CCN(c3ccccc3OC)CC2)ccc1OCCCc1cn(CCCCCCCCn2cc(CCCOc3ccc(CN4CCN(c5ccccc5OC)CC4)cc3OC)nn2)nn1 5

Would you kindly share the measured Ratio Ki for `CCCCn1cc(CCCOc2ccc(CN3CCN(c4ccccc4OC)CC3)cc2OC)nn1` ?
80

====

Target: UniProtKB P21917
Sequence (P21917 whole entry): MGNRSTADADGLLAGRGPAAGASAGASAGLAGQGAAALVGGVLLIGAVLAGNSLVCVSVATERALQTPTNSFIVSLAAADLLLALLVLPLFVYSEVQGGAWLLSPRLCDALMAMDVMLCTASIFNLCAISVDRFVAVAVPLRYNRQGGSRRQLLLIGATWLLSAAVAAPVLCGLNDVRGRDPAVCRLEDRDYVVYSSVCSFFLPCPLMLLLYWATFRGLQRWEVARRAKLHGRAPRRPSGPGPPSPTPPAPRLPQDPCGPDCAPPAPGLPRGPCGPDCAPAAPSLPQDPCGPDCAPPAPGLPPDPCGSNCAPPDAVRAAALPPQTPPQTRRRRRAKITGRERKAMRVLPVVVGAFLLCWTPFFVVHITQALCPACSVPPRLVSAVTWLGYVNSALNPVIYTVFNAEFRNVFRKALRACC
Experiment: Displacement of [3H]spiperone from human D4.4 receptor expressed in CHO cells
Type: cell-based
PROPERTY NAME: pKi
Please report pKi as the negative decimal logarithm of the molar concentration, giving only the number.

Take a look at these entries with their results.
COc1cc(CN2CCN(c3ccccc3OC)CC2)ccc1OCCCc1cn(CCCCCCCCn2cc(CCCOc3ccc(CN4CCN(c5ccccc5OC)CC4)cc3OC)nn2)nn1 7.82
COc1cc(CN2CCN(c3ccccc3OC)CC2)ccc1OCCCCc1cn(CCCCCCCCCCn2cc(CCCCOc3ccc(CN4CCN(c5ccccc5OC)CC4)cc3OC)nn2)nn1 7.96
COc1cc(CN2CCN(c3ccccc3OC)CC2)ccc1OCCCc1cn(CCOCCOCCOCCn2cc(CCCOc3ccc(CN4CCN(c5ccccc5OC)CC4)cc3OC)nn2)nn1 7.72

In the following, a different molecule is considered.
Would you kindly share the measured pKi for `CCCCn1cc(COc2ccc(CN3CCN(c4ccccc4OC)CC3)cc2OC)nn1` ?
8.48

====

Let's look at some molecules and their measured pKi.
Molecular target: D(1A) dopamine receptor (Sus scrofa, UniProt P50130)
Sequence (P50130 whole entry): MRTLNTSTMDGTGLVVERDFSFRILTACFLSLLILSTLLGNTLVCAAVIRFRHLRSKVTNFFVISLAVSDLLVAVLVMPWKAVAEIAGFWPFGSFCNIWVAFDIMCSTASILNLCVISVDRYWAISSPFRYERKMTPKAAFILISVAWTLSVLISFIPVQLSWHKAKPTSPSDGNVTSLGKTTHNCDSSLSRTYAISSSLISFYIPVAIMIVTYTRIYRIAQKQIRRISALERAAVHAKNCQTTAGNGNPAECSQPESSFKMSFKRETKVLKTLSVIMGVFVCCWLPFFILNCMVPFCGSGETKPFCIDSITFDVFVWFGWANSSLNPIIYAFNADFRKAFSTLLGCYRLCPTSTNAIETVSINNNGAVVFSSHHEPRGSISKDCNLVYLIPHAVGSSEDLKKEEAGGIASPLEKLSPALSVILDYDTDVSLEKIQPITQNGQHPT
Assay: Displacement of [3H]SCH23390 from D1 receptor from porcine cerebral cortex homogenates
Please report pKi as the negative decimal logarithm of the molar concentration, giving only the number.

Take a look at these entries with their results.
COc1cc(CN2CCN(c3ccccc3OC)CC2)ccc1OCc1cn(CCCCCCCCn2cc(COc3ccc(CN4CCN(c5ccccc5OC)CC4)cc3OC)nn2)nn1 6.68
CCCCn1cc(CCCOc2ccc(CN3CCN(c4ccccc4OC)CC3)cc2OC)nn1 5.82
COc1cc(CN2CCN(c3ccccc3OC)CC2)ccc1OCCCc1cn(CCCCCCCCn2cc(CCCOc3ccc(CN4CCN(c5ccccc5OC)CC4)cc3OC)nn2)nn1 6.66

In the following, a different molecule is considered.
Would you kindly share the measured pKi for `COc1cc(CN2CCN(c3ccccc3OC)CC2)ccc1OCc1cn(CCOCCOCCn2cc(COc3ccc(CN4CCN(c5ccccc5OC)CC4)cc3OC)nn2)nn1` ?
6.41
